The entries below are paired with their reported growth at 10 µM.
- method summary: Growth inhibition of human SNB19 cells assessed as cell growth at 10 uM incubated for 48 hrs by sulforhodamine B assay relative to control
- Format: functional
- condition details: SNB-19, 48 h, read-out: Activity
// note: answer is a bare numeric in %

chemical smiles	unit name	growth at 10 µM
C[C@@H]1NC(c2ccc(Cl)cc2)=Nc2nc3ccccn3c2C1=O	%	93.2
C[C@@H]1NC(c2ccc3ccccc3c2)=Nc2nc3ccccn3c2C1=O	%	53.3
C[C@@H]1NC(c2ccc(Cl)cc2Cl)=Nc2nc3ccccn3c2C1=O	%	60.8

Requested field: growth at 10 µM. Item: CC(C)(C)OC[C@@H]1NC(c2ccc(Br)cc2)=Nc2nc3ccccn3c2C1=O
76.5

* * *

- method summary: Growth inhibition of human SK-MEL-5 cells assessed as cell growth at 10 uM incubated for 48 hrs by sulforhodamine B assay relative to control
- Type: functional
- condition details: SK-MEL-5, 48 h, read-out: Activity
endpoint label: growth at 10 µM
Include the unit right after the number.

chemical smiles	growth at 10 µM
C[C@@H]1NC(c2ccc(Cl)cc2Cl)=Nc2nc3ccccn3c2C1=O	39.6%
CC(C)(C)OC[C@@H]1NC(c2ccc(Br)cc2)=Nc2nc3ccccn3c2C1=O	38.4%
C[C@@H]1NC(c2ccc3ccccc3c2)=Nc2nc3ccccn3c2C1=O	35.3%

If you can, please state the reported growth at 10 µM value of C[C@@H]1NC(c2ccc(Cl)cc2)=Nc2nc3ccccn3c2C1=O .
87.7%

* * *

- method summary: Growth inhibition of human SK-MEL-28 cells assessed as cell growth at 10 uM incubated for 48 hrs by sulforhodamine B assay relative to control
- Format: functional
- condition details: SK-MEL-28, 48 h, read-out: Activity
endpoint label: growth at 10 µM (%)
Give a bare numeral; the unit % is implied.

chemical smiles	growth at 10 µM [%]
CC(C)(C)OC[C@@H]1NC(c2ccc(Br)cc2)=Nc2nc3ccccn3c2C1=O	68.6
C[C@@H]1NC(c2ccc3ccccc3c2)=Nc2nc3ccccn3c2C1=O	59.9
C[C@@H]1NC(c2ccc(Cl)cc2Cl)=Nc2nc3ccccn3c2C1=O	60.7

Turning now to a further record.
Could you tell me which growth at 10 µM is on file for C[C@@H]1NC(c2ccc(Cl)cc2)=Nc2nc3ccccn3c2C1=O ?
92.8

* * *

Recorded growth at 10 µM values for a group of compounds are listed next.
- method summary: Growth inhibition of human SK-MEL-2 cells assessed as cell growth at 10 uM incubated for 48 hrs by sulforhodamine B assay relative to control
- Format: functional
- condition details: SK-MEL-2, 48 h, read-out: Activity
Express your answer in %, writing the number without its unit.

The following compounds have reported results that may help.
chemical smiles	unit name	observed value
C[C@@H]1NC(c2ccc3ccccc3c2)=Nc2nc3ccccn3c2C1=O	%	36.3
CC(C)(C)OC[C@@H]1NC(c2ccc(Br)cc2)=Nc2nc3ccccn3c2C1=O	%	49.2
C[C@@H]1NC(c2ccc(Cl)cc2Cl)=Nc2nc3ccccn3c2C1=O	%	38.2

Turning now to a further compound:
Field request: growth at 10 µM | item: C[C@@H]1NC(c2ccc(Cl)cc2)=Nc2nc3ccccn3c2C1=O
84.8

* * *

growth at 10 µM overview
- method summary: Growth inhibition of human OVCAR8 cells assessed as cell growth at 10 uM incubated for 48 hrs by sulforhodamine B assay relative to control
- Assay type: functional
- condition details: OVCAR-8, 48 h, read-out: Activity
Give a bare numeral; the unit % is implied.

Past entries and their recorded results:
chemical smiles	endpoint label	observed value
C[C@@H]1NC(c2ccc3ccccc3c2)=Nc2nc3ccccn3c2C1=O	growth at 10 µM	54.4
C[C@@H]1NC(c2ccc(Cl)cc2Cl)=Nc2nc3ccccn3c2C1=O	growth at 10 µM	68.1
CC(C)(C)OC[C@@H]1NC(c2ccc(Br)cc2)=Nc2nc3ccccn3c2C1=O	growth at 10 µM	79.5

Could you now consider this next molecule?
Field request: growth at 10 µM | item: C[C@@H]1NC(c2ccc(Cl)cc2)=Nc2nc3ccccn3c2C1=O
90.3
